Target: T1, CD117 (c-Kit, stem cell factor receptor) on HEL or TF1 human erythroleukemia cells (human, UniProt P10721 26-976)
T1 construct: whole, on cells
T1 sequence (P10721 26-976): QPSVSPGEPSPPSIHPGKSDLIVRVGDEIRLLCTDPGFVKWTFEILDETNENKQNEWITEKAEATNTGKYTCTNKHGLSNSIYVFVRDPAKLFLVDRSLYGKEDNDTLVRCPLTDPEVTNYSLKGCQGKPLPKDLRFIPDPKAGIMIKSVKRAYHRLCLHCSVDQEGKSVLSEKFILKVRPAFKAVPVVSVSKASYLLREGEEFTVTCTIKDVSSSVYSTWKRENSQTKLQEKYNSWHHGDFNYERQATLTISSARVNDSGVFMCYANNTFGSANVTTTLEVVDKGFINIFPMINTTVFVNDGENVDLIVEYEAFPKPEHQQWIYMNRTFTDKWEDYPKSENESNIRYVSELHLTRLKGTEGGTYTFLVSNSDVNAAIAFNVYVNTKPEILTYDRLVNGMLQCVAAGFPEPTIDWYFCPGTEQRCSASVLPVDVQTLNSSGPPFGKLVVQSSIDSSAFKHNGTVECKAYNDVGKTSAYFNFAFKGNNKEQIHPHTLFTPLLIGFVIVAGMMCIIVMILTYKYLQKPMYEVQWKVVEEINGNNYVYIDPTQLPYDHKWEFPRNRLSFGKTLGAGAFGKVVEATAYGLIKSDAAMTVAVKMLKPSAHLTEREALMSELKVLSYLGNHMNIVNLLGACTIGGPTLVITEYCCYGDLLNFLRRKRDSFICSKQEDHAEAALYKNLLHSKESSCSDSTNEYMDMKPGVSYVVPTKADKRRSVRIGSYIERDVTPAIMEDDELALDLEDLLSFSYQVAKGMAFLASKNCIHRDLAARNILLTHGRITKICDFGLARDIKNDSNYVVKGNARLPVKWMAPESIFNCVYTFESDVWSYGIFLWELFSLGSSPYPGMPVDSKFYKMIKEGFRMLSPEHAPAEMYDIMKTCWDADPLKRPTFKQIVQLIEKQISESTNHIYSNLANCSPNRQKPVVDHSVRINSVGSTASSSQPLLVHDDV
Experiment: flow cytometry on HEL cells; 100 µl/2.10^5 cells
Procedure: By flow cytometry, the humanized mAb staining was analyzed on HEL CD117 positive cell line. […] No staining was observed on the cell line CEM (CD117 negative, (data not shown).
measured property: MFI

ch36-05 chimeric monoclonal antibody (antibody, human IgG1, kappa, V domains shown, Murine VH + human IgG1 Fc; murine VL + human Kappa; also called chR036-05; chR036.05) VH: QVQLQQSGAELVKPGAPVKLSCKASGYTFTRYWMNWVKQRPGRGLEWIGRIDPSDSEIHYNQNFKDKATLTVDKSSSTAYIQLSSLTSEDSAVYYCARDYGSDYYAMDYWGQGTSVTVSS VL: QIVLTQSPAIMSASLGEEITLTCSASSSVSYMHWYQQKSGTSPKLLIYSTSNLTSGVPSRFSGSGSGTFYSLTISSVEAEDAADYYCHQWSSYPFGGGTKLEIKR :: 251
humanized antibody 36-5 Hz128 (antibody, human IgG1, V domains shown, The variable regions were cloned into vector p3U containing the human IgG1 constant region; also called H-36.5Hz31 + L-36.5Hz31) VH: QVQLVQSGAEVKKPGASVKVSCKASGYTFTSYWMNWVRQAPGQGLEWIGRIDPSDSEIHYNQKFKGRVTMTVDTSTSTAYMELSSLRSEDTAVYYCARDYGSDYYAMDYWGQGTLVTVSS VL: QIVLTQSPAFQSVTPGEKVTITCSASQSVSYMHWYQQKSGTSPKLLIYSTSNLTSGVPSRFSGSGSGTDYTLTISSLEAEDAATYYCHQWSSYPFGGGTKVEIK :: 291
humanized antibody 36-5 Hz121 (antibody, human IgG1, V domains shown, The variable regions were cloned into vector p3U containing the human IgG1 constant region; also called H-36.5Hz30 + L-36.5Hz31) VH: QVQLVQSGAEVKKPGASVKVSCKASGYTFTSYWMNWVRQAPGQGLEWMGRIDPSDSEIHYNQKFKGRVTMTVDTSTSTAYMELSSLRSEDTAVYYCARDYGSDYYAMDYWGQGTLVTVSS VL: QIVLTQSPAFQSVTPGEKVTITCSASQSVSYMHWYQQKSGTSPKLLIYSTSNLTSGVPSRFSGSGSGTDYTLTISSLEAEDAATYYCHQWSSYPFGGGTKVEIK :: 241
humanized antibody 36-5 Hz114 (antibody, human IgG1, V domains shown, The variable regions were cloned into expression vector p3U containing the human IgG1 constant region; also called H-36.5Hz27 + L-36.5Hz31) VH: QVQLVQSGAEVKKPGASVKVSCKASGYTFTSYWMNWVRQAPGQGLEWMGRIDPSDSEIHYNQKFKDKATLTVDKSTSTAYMELSSLRSEDTAVYYCARDYGSDYYAMDYWGQGTLVTVSS VL: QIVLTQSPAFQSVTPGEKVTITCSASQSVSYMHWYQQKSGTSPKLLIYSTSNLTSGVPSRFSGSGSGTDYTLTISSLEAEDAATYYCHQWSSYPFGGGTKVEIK :: 242
